measured on: LAP2, Q96RT1
Sequence (Q96RT1 other isoform, or with tags, fused parts or gaps): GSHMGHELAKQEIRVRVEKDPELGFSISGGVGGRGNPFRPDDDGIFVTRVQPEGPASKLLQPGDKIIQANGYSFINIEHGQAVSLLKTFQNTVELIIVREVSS
measurement notes: holdup assay
Design: key: below the threshold = too weak to quantify, mostly under pKd 3.1 to 4
condition parameters: plain residues with an end cap or a label only (N-terminal biotin on a linker: ado-ado)
reported property: pKd
When you answer, write just the number.

TETASVCTKV [SLC23A1, Q9UHI7]
3.74

Pending binder:
Recorded result, FVHPILQSAV [PRKCA, P17252] , pKd: 4.13
